Exercise: for every item that follows, state its recorded viability at 18 h, 5 µM.
# assay-details: Cytotoxicity against C57BL/6 mouse primary BMDC assessed as cell viability at 5 uM after 18 hrs by MTT assay relative to control
# Assay type: cell-based
# condition-parameters: primary BMDC (bone marrow-derived dendritic cells), read-out: Activity

Req: Fill in: viability at 18 h, 5 µM of Cn1c2ccc(C#N)cc2c2nc(SCC(=O)NC3CCCCC3)n(-c3ccccc3)c(=O)c21 is ___
Resp: 107%

Req: Fill in: viability at 18 h, 5 µM of Cn1c2ccccc2c2nc(SCC(=O)NC3CCCCC3)n(-c3ccccc3)c(=O)c21 is ___
Resp: 97 to 106%

Req: Fill in: viability at 18 h, 5 µM of O=C(CSc1nc2c3c([nH]c2c(=O)n1-c1ccccc1)CCCCC3)NC1CCCCC1 is ___
Resp: 84%

Req: Fill in: viability at 18 h, 5 µM of Cn1c2ccc(-c3ccc(-c4ccccc4)cc3)cc2c2nc(SCC(=O)NC3CCCCC3)n(-c3ccccc3)c(=O)c21 is ___
Resp: 23%

Req: Fill in: viability at 18 h, 5 µM of O=C(CCSc1nc2c([nH]c3ccccc32)c(=O)n1-c1ccccc1)NC1CCCCC1 is ___
Resp: 58%

====

# tested-target: Toll-like receptor 4 (Mus musculus)
# assay-details: Agonist activity at TLR4 in C57BL/6 mouse primary BMDC assessed as induction of IL-6 release at 5 uM after 18 hrs by ELISA relative to N-cyclohexyl-2-(5-methyl-4-oxo-3-phenyl-4,5-dihydro-3H-pyrimido[5,4-b]indol-2-ylthio)acetamide
Exercise: for every item that follows, state its recorded Activity.
Write the value in % as a bare number.

Req: Given the entry Cc1[nH]c2c(=O)n(-c3ccccc3)c(SCC(=O)NC3CCCCC3)nc2c1C , what Activity was observed with Toll-like receptor 4 (Mus musculus)?
Resp: 78

Req: Given the entry Cn1c2cc(Br)ccc2c2nc(SCC(=O)NC3CCCCC3)n(-c3ccccc3)c(=O)c21 , what Activity was observed with Toll-like receptor 4 (Mus musculus)?
Resp: 73

Req: Given the entry Cn1c2ccc(NC(=O)c3ccccc3)cc2c2nc(SCC(=O)NC3CCCCC3)n(-c3ccccc3)c(=O)c21 , what Activity was observed with Toll-like receptor 4 (Mus musculus)?
Resp: 7

Req: Given the entry Cn1c2ccc(Br)cc2c2nc(SCC(=O)NC3CCCCC3)n(-c3ccccc3)c(=O)c21 , what Activity was observed with Toll-like receptor 4 (Mus musculus)?
Resp: 120

Req: Given the entry Cc1c(C)n(C)c2c(=O)n(-c3ccccc3)c(SCC(=O)NC3CCCCC3)nc12 , what Activity was observed with Toll-like receptor 4 (Mus musculus)?
Resp: 81

Req: Given the entry O=C(CSc1nc2c3c([nH]c2c(=O)n1-c1ccccc1)CCCC3)NC1CCCCC1 , what Activity was observed with Toll-like receptor 4 (Mus musculus)?
Resp: 80

Req: Given the entry Cn1ccc2nc(SCC(=O)NC3CCCCC3)n(-c3ccccc3)c(=O)c21 , what Activity was observed with Toll-like receptor 4 (Mus musculus)?
Resp: 1

====

Exercise: for every item that follows, state its recorded Activity.
# tested-target: Toll-like receptor 4 (Mus musculus)
# assay-details: Agonist activity at mouse TLR4 expressed in HEK293 blue cells assessed as induction of NF-kappaB activation-mediated SEAP production by measuring AUC after 20 to 24 hrs by colorimetric assay relative to N-cyclohexyl-2-(5-methyl-4-oxo-3-phenyl-4,5-dihydro-3H-pyrimido[5,4-b]indol-2-ylthio)acetamide
# Type: cell-based
Write the value in % as a bare number.

Req: Fill in: Activity of O=C(CSc1nc2cc[nH]c2c(=O)n1-c1ccccc1)NC1CCCCC1 is ___
Resp: 4

Req: Fill in: Activity of Cn1c2cc(Br)ccc2c2nc(SCC(=O)NC3CCCCC3)n(-c3ccccc3)c(=O)c21 is ___
Resp: 34

Req: Fill in: Activity of Cn1c2ccc(NC(=O)c3ccccc3)cc2c2nc(SCC(=O)NC3CCCCC3)n(-c3ccccc3)c(=O)c21 is ___
Resp: 2

Req: Fill in: Activity of Cn1c2ccc(-c3cccc4ccccc34)cc2c2nc(SCC(=O)NC3CCCCC3)n(-c3ccccc3)c(=O)c21 is ___
Resp: 38

Req: Fill in: Activity of Cn1c2ccc(C#C[Si](C)(C)C)cc2c2nc(SCC(=O)NC3CCCCC3)n(-c3ccccc3)c(=O)c21 is ___
Resp: 85

Req: Fill in: Activity of Cn1c2ccc(-c3ccc(-c4ccccc4)cc3)cc2c2nc(SCC(=O)NC3CCCCC3)n(-c3ccccc3)c(=O)c21 is ___
Resp: 1

Req: Fill in: Activity of O=C(CSc1nc2c3c([nH]c2c(=O)n1-c1ccccc1)CCCC3)NC1CCCCC1 is ___
Resp: 36

Req: Fill in: Activity of Cc1c(C)n(C)c2c(=O)n(-c3ccccc3)c(SCC(=O)NC3CCCCC3)nc12 is ___
Resp: 22

Req: Fill in: Activity of O=C(CCCSc1nc2c([nH]c3ccccc32)c(=O)n1-c1ccccc1)NC1CCCCC1 is ___
Resp: 2

====

# tested-target: Toll-like receptor 4 (Mus musculus) (UniProt Q9QUK6)
# Sequence (Q9QUK6 whole entry): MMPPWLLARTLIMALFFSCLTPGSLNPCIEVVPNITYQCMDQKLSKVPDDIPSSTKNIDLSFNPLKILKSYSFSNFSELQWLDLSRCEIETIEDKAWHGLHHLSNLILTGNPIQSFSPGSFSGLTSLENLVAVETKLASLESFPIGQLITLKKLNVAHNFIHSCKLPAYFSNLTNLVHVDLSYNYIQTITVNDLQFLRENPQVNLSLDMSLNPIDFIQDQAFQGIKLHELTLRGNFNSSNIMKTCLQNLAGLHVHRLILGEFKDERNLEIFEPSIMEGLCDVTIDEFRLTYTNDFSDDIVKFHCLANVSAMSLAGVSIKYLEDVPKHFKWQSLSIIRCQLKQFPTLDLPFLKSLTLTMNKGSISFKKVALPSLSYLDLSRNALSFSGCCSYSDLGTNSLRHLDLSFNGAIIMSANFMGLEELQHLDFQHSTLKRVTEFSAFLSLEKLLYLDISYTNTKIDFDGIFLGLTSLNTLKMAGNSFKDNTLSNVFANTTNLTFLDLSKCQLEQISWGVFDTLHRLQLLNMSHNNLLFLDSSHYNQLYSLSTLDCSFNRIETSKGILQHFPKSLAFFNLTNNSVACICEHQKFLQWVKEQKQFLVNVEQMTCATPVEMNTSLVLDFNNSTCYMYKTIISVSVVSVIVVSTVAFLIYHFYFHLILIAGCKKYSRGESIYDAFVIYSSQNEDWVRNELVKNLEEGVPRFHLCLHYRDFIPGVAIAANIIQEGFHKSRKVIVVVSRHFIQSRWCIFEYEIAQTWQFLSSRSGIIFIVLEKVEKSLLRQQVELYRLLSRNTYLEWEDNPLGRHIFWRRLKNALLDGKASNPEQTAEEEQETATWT
# assay-details: Agonist activity at mouse TLR4 expressed in HEK293 blue cells assessed as induction of NF-kappaB activation-mediated SEAP production by measuring AUC after 20 to 24 hrs by colorimetric assay relative to N-cyclohexyl-2-(5-methyl-4-oxo-3-phenyl-4,5-dihydro-3H-pyrimido[5,4-b]indol-2-ylthio)acetamide
# Type: cell-based
Exercise: for every item that follows, state its recorded Activity.
Write the value in % as a bare number.

Req: Fill in: Activity of O=c1c2[nH]c3ccccc3c2nc(SCCCC2CCCCC2)n1-c1ccccc1 is ___
Resp: 1

Req: Fill in: Activity of O=C(CSc1nc2c3c([nH]c2c(=O)n1-c1ccccc1)CCCCC3)NC1CCCCC1 is ___
Resp: 82

Req: Fill in: Activity of Cn1c2ccc(-c3ccc4ccccc4c3)cc2c2nc(SCC(=O)NC3CCCCC3)n(-c3ccccc3)c(=O)c21 is ___
Resp: 78

Req: Fill in: Activity of Cn1c2ccc(I)cc2c2nc(SCC(=O)NC3CCCCC3)n(-c3ccccc3)c(=O)c21 is ___
Resp: 104

Req: Fill in: Activity of Cn1c2c(c3nc(SCC(=O)NC4CCCCC4)n(-c4ccccc4)c(=O)c31)CCCCC2 is ___
Resp: 44

Req: Fill in: Activity of C#Cc1ccc2c(c1)c1nc(SCC(=O)NC3CCCCC3)n(-c3ccccc3)c(=O)c1n2C is ___
Resp: 92

Req: Fill in: Activity of Cn1c2ccc(C#N)cc2c2nc(SCC(=O)NC3CCCCC3)n(-c3ccccc3)c(=O)c21 is ___
Resp: 14

Req: Fill in: Activity of Cn1c2c(c3nc(SCC(=O)NC4CCCCC4)n(-c4ccccc4)c(=O)c31)CCCC2 is ___
Resp: 13

Req: Fill in: Activity of Cn1c2ccccc2c2nc(NCC(=O)NC3CCCCC3)n(-c3ccccc3)c(=O)c21 is ___
Resp: 2

====

# tested-target: Toll-like receptor 4 (Homo sapiens)
# Sequence (O00206 whole entry): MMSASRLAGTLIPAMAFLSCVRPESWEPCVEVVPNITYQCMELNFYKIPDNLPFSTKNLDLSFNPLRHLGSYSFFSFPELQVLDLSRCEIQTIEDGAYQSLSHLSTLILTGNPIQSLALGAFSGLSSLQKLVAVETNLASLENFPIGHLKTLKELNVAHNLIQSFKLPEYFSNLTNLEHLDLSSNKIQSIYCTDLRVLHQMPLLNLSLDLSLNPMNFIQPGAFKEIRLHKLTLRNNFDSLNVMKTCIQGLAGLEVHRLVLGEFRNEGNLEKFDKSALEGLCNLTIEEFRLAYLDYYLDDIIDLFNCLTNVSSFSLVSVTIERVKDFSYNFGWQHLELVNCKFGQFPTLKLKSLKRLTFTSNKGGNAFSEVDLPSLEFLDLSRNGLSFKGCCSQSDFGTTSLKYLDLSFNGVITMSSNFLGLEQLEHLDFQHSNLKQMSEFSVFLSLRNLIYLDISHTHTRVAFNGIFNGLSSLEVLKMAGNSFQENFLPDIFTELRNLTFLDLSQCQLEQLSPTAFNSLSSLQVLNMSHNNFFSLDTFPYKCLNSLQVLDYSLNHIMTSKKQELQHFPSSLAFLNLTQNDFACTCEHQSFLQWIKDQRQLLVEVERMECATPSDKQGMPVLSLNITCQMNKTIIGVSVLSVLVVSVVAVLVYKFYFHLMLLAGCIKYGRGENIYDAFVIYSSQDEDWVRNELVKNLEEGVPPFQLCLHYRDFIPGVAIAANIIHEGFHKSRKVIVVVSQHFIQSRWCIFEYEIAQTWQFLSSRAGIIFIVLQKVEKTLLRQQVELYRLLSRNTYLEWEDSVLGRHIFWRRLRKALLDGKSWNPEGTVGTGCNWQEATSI
# assay-details: Agonist activity at human TLR4 expressed in HEK293 blue cells assessed as induction of NF-kappaB activation-mediated SEAP production by measuring AUC after 20 to 24 hrs by colorimetric assay relative to N-cyclohexyl-2-(5-methyl-4-oxo-3-phenyl-4,5-dihydro-3H-pyrimido[5,4-b]indol-2-ylthio)acetamide
# Type: cell-based
Exercise: for every item that follows, state its recorded Activity.
Write the value in % as a bare number.

Req: Fill in: Activity of O=C(CSc1nc2c3c([nH]c2c(=O)n1-c1ccccc1)CCCC3)NC1CCCCC1 is ___
Resp: 27

Req: Fill in: Activity of Cn1ccc2nc(SCC(=O)NC3CCCCC3)n(-c3ccccc3)c(=O)c21 is ___
Resp: 17

Req: Fill in: Activity of Cn1c2ccc(C#N)cc2c2nc(SCC(=O)NC3CCCCC3)n(-c3ccccc3)c(=O)c21 is ___
Resp: 12

Req: Fill in: Activity of O=C(CCCSc1nc2c([nH]c3ccccc32)c(=O)n1-c1ccccc1)NC1CCCCC1 is ___
Resp: 8

Req: Fill in: Activity of Cn1c2cc(Br)ccc2c2nc(SCC(=O)NC3CCCCC3)n(-c3ccccc3)c(=O)c21 is ___
Resp: 40

Req: Fill in: Activity of Cn1c2ccc(Br)cc2c2nc(SCC(=O)NC3CCCCC3)n(-c3ccccc3)c(=O)c21 is ___
Resp: 159

Req: Fill in: Activity of Cn1c2ccc(C#C[Si](C)(C)C)cc2c2nc(SCC(=O)NC3CCCCC3)n(-c3ccccc3)c(=O)c21 is ___
Resp: 87

Req: Fill in: Activity of O=c1c2[nH]c3ccccc3c2nc(SCCCC2CCCCC2)n1-c1ccccc1 is ___
Resp: 9

Req: Fill in: Activity of O=C(CSc1nc2cc[nH]c2c(=O)n1-c1ccccc1)NC1CCCCC1 is ___
Resp: 7

Req: Fill in: Activity of Cn1c2ccccc2c2nc(NCC(=O)NC3CCCCC3)n(-c3ccccc3)c(=O)c21 is ___
Resp: 10

Req: Fill in: Activity of Cn1c2ccc(-c3ccccc3)cc2c2nc(SCC(=O)NC3CCCCC3)n(-c3ccccc3)c(=O)c21 is ___
Resp: 1560

Req: Fill in: Activity of Cn1c2c(c3nc(SCC(=O)NC4CCCCC4)n(-c4ccccc4)c(=O)c31)CCCC2 is ___
Resp: 8

Req: Fill in: Activity of Cc1[nH]c2c(=O)n(-c3ccccc3)c(SCC(=O)NC3CCCCC3)nc2c1C is ___
Resp: 18

Req: Fill in: Activity of Cn1c2cc(C#N)ccc2c2nc(SCC(=O)NC3CCCCC3)n(-c3ccccc3)c(=O)c21 is ___
Resp: 20

Req: Fill in: Activity of Cn1c2c(c3nc(SCC(=O)NC4CCCCC4)n(-c4ccccc4)c(=O)c31)CCCCC2 is ___
Resp: 46

Req: Fill in: Activity of Cn1c2ccc(-c3ccc4ccccc4c3)cc2c2nc(SCC(=O)NC3CCCCC3)n(-c3ccccc3)c(=O)c21 is ___
Resp: 1300

Req: Fill in: Activity of Cn1c2ccc(NC(=O)c3ccccc3)cc2c2nc(SCC(=O)NC3CCCCC3)n(-c3ccccc3)c(=O)c21 is ___
Resp: 26

Req: Fill in: Activity of CCCCCCCC(=O)Nc1ccc2c(c1)c1nc(SCC(=O)NC3CCCCC3)n(-c3ccccc3)c(=O)c1n2C is ___
Resp: 15

Req: Fill in: Activity of C#Cc1ccc2c(c1)c1nc(SCC(=O)NC3CCCCC3)n(-c3ccccc3)c(=O)c1n2C is ___
Resp: 107

Source listed as ChEMBL document CHEMBL4028879.
